# System Under Test: ROCK2 (Homo sapiens, UniProt O75116)
# Sequence (O75116 whole entry, species assumed): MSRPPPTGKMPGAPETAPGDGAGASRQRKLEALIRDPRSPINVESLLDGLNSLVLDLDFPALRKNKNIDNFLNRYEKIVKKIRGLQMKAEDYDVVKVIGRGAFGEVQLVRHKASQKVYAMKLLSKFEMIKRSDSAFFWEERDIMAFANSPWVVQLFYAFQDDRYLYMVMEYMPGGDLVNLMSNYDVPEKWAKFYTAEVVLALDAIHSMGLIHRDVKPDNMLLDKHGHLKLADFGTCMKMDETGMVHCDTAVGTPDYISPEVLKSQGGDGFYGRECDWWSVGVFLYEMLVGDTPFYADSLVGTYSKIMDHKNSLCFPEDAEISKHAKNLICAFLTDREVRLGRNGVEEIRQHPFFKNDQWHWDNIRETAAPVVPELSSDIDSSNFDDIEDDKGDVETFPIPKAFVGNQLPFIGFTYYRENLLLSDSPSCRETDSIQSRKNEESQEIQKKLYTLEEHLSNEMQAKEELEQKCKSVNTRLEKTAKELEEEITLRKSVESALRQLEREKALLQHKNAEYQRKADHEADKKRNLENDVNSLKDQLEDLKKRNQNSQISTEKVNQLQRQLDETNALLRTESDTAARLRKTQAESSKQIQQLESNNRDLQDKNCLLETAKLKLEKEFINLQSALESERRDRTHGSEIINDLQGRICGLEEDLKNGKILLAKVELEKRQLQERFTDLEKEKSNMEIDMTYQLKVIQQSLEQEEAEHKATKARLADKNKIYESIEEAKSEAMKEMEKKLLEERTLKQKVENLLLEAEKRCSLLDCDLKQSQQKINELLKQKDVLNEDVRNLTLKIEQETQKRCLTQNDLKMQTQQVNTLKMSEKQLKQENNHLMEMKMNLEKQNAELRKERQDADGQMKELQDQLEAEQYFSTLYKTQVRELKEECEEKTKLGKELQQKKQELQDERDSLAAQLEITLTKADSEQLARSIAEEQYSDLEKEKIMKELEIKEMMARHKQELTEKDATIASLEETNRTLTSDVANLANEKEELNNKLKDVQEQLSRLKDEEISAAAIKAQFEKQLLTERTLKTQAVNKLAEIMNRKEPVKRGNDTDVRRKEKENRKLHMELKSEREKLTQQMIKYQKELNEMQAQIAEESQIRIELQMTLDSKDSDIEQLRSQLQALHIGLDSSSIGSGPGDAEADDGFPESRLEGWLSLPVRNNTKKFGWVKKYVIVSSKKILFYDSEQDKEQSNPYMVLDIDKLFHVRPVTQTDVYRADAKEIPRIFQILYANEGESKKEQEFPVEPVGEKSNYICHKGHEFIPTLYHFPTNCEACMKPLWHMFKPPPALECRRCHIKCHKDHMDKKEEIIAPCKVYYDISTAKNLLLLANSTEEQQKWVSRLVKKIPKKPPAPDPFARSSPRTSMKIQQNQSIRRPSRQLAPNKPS
# Test Protocol: ROCK2 kinase inhibition assay (LABCHIP 3000 Reader, FITC peptide substrate)
Readout Type: IC50

Guide cases for IC50, answers given:
{"Molecule": "CC(C)(O)COc1ccc2c(C(=O)NC3CC4(C3)CC(Oc3cc(Br)ccc3C(N)=O)C4)cnn2c1 (centres unmarked) [Example 272]", "IC50": "< 5 nM"}
{"Molecule": "CC(C)(O)COc1ccc2c(C(=O)NC3CC4(C3)CC(Oc3cc(C5CCNC5)ccc3C(N)=O)C4)cnn2c1 (centres unmarked) [Example 301]", "IC50": "5 to 50 nM"}
{"Molecule": "NC(=O)c1cccnc1O[C@H]1CC2(C[C@H](NC(=O)c3cc4ccccc4cn3)C2)C1 (some centres unmarked) [Example 159]", "IC50": "50 to 250 nM"}
{"Molecule": "Cn1nc(C(=O)N[C@H]2CC3(C2)C[C@H](Oc2ncccc2C(N)=O)C3)cc1OCC(F)(F)C(F)F (some centres unmarked) [Example 87]", "IC50": "50 to 250 nM"}

What measured IC50 is associated with CC(C)(O)COc1ccc2c(C(=O)NC3CC4(C3)CC(Oc3cc(-c5cc(F)cc(C#N)c5)ccc3C(N)=O)C4)cnn2c1 (centres unmarked) [Example 253] on ROCK2 (Homo sapiens, UniProt O75116)?
5 to 50 nM

N#Cc1cccn2c(C(=O)N[C@H]3CC4(C3)C[C@H](Oc3ncccc3C(N)=O)C4)cnc12 (some centres unmarked) [Example 354] ?
50 to 250 nM

CN(c1ccccc1)S(=O)(=O)c1cccc(C(=O)N[C@H]2CC3(C2)C[C@H](Oc2ncccc2C(N)=O)C3)c1 (some centres unmarked) [Example 131] ?
5 to 50 nM

Cn1nc(C(=O)N[C@H]2CC3(C2)C[C@H](Oc2ncccc2C(N)=O)C3)cc1OCCC(F)(F)F (some centres unmarked) [Example 91] ?
50 to 250 nM

NC(=O)c1cccnc1O[C@H]1CC2(C[C@H](NC(=O)c3nnn4cc(-c5cnn(C6CC6)c5)ccc34)C2)C1 (some centres unmarked) [Example 364] ?
< 5 nM

CN(C)CCOc1ccc2c(C(=O)N[C@H]3CC4(C3)C[C@H](Oc3ncccc3C(N)=O)C4)cnn2c1 (some centres unmarked) [Example 80] ?
5 to 50 nM

CC(C)(O)COc1ccc2c(C(=O)N[C@H]3CC4(C3)C[C@H](Oc3ncccc3C(N)=O)C4)cnn2c1N1CCCCC1=O (atropisomer, axis not shown; (aR)) [Example 69] ?
50 to 250 nM

NC(=O)c1cccnc1O[C@H]1CC2(C[C@H](NC(=O)c3nn(C(F)F)c4cc(OCc5ccccc5)ccc34)C2)C1 (some centres unmarked) [Example 171] ?
5 to 50 nM

CNC(=O)c1cc(-c2ccc(C(N)=O)c(OC3CC4(CC(NC(=O)c5cnn6cc(OCC(C)(C)O)ccc56)C4)C3)c2)ccc1F (centres unmarked) [Example 295] ?
5 to 50 nM

CS(=O)(=O)c1ccc2c(c1)CCN2C(=O)N[C@H]1CC2(C1)C[C@H](Oc1ccccc1C(N)=O)C2 (some centres unmarked) [Example 39] ?
50 to 250 nM

----------
# System Under Test: ROCK2 (Homo sapiens, UniProt O75116)
# Test Protocol: ROCK2 kinase inhibition assay (LABCHIP 3000 Reader, FITC peptide substrate);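 also: rho kinase reaction read by separating phosphorylated from unphosphorylated peptide on chip, with inhibition of kinase activity computed per concentration across a dose-response series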
# Test Conditions: read-out: ROCK2 Activity (ROCK2 IC50); 5 μM ATP, 1.5 μM peptide substrate, pH 7.5
Structures can show the parent of a compound that is named as a salt.
Listed below: IC50 values for each entry.

Guide cases for IC50, answers given:
{"Compound": "NC(=O)c1cccnc1OC1CC2(CC(NC(=O)c3nc(C(F)F)n4cc(N5CCOCC5)ccc34)C2)C1 (stereo not shown)", "Experimental Value": "< 5 nM"}
{"Compound": "NC(=O)c1cccnc1OC1CC2(CC(NC(=O)c3nc(C(F)F)n4cc(N5CCN[C@H](CO)C5)ccc34)C2)C1 (stereo partly shown)", "Experimental Value": "5 to 50 nM"}
{"Compound": "Cc1c(C(=O)N[C@H]2CC3(C2)C[C@H](Oc2ncccc2C(N)=O)C3)cnn1Cc1ccc(F)cc1 (stereo partly shown) [Example 383, trifluoroacetic acid salt]", "Experimental Value": "5 to 50 nM"}
{"Compound": "Cn1cc(-c2ccc3c(C(=O)NC4CC5(C4)CC(Oc4ncccc4C(N)=O)C5)nn(CC4(O)CCC4)c3c2)cn1 (stereo not shown) [Example 405, TFA]", "Experimental Value": "< 5 nM"}
{"Compound": "CC(C)(C#N)n1nc(C(=O)NC2CC3(C2)CC(Oc2ncccc2C(N)=O)C3)c2ccc(F)cc21 (stereo not shown) [Example 401, TFA]", "Experimental Value": "< 5 nM"}
{"Compound": "Cn1cc(-c2cc(C(=O)NC3CC4(C3)CC(Oc3ncccc3C(N)=O)C4)cc(C(F)(F)F)c2)cn1 (stereo not shown)", "Experimental Value": "< 5 nM"}

Then this compound:
Suppose we examine the compound Cc1c(C(=O)NC2CC3(C2)CC(Oc2ncccc2C(N)=O)C3)cnn1-c1ccc(Cl)cc1 (stereo not shown) [Example 384, trifluoroacetic acid salt] ; what IC50 value has been reported?
5 to 50 nM
